Sourced from patent US20030194378A1

- PROTOCOL DESCRIPTION: Solubility of selected excipients in 4HPFOH
- EXPERIMENTAL SETUP: excipient in 4HPFOH
Here the recorded Concentration % w/w (at which solubility in 4HPFOH was assessed) is given for each entry.
MEASURED ATTRIBUTE: Concentration % w/w (at which solubility in 4HPFOH was assessed)

{"columns": ["MOLECULE", "RESULT"],
 "data": [
  ["C[C@H](CCC(=O)O)[C@H]1CC[C@H]2[C@@H]3CC[C@@H]4C[C@H](O)CC[C@]4(C)[C@H]3C[C@H](O)[C@]12C", "0.90 % w/w"],
  ["CCCCCCCCO[C@@H]1O[C@H](CO)[C@@H](O)[C@H](O)[C@H]1O [N Octyl beta D Glucopyranoside]", "0.11 % w/w"],
  ["CCCCCCCCC[N+](C)(C)C.[Br-] [Nonyltrimethyl Ammonium Bromide]", "0.96 % w/w"],
  ["CCCCCCCCCCCC[N+](C)(C)C.[Br-] [Dodecyltrimethyl Ammonium Bromide]", "1.00 % w/w"],
  ["CCCCC(CC)COC(=O)CC(C(=O)OCC(CC)CCCC)S(=O)(=O)[O-].[Na+] (centres unmarked) [Dioctyl-sulfosuccinate sodium salt]", "0.096 % w/w"]
]}
